# system: human PCSK9 / human LDLR EGFa domain interaction (Homo sapiens (Human))
# Sequence (Q8NBP7 153-692): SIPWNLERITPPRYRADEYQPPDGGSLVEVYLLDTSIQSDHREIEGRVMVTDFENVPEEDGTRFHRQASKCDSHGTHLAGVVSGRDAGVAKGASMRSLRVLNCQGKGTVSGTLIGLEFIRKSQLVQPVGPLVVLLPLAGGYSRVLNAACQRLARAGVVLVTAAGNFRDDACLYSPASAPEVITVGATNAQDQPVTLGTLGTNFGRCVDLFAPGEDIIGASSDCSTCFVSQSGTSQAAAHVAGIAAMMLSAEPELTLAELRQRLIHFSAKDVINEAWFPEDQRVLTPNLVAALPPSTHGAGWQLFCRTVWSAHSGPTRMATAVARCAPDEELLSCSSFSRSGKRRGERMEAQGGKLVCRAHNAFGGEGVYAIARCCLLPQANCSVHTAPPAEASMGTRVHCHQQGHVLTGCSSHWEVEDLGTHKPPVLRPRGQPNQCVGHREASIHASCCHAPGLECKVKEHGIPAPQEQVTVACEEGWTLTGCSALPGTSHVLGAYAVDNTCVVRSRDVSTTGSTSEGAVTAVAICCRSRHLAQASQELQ
# Sequence (Q8NBP7 31-152 partner): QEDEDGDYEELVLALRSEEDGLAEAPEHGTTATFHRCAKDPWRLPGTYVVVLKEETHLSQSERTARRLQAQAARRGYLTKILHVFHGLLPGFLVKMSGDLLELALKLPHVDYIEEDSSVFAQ
# assay_procedure: TR-FRET assay of inhibition of the PCSK9-LDLR protein-protein interaction
# Assay type: binding
# measurement_conditions: TR-FRET, 20 nM human PCSK9, 20 nM human LDLR EGFa domain, 2 hours room temperature; read-out: IC50
Starred links: 1 amine or outer side, 2 acyl side, 3 side chain; linkers in the order of their positions; H or OH if unused. Positions of bridges follow the written chain, without caps; N, C: chain ends. Non-standard residues stand in square brackets, D forms with d. Residues, ends and D or L forms follow the SMILES beside them. Groups on a side chain read outwards from the residue. *: point of attachment. Trp(5-F) = N[C@@H](Cc1c[nH]c2ccc(F)cc12)C(=O)O; γGlu = O=C(O)[C@H](CCC(=O)[*:2])N[*:1]; mXylylene = c1cc(C[*:1])cc(C[*:2])c1; Palmitoyl = CCCCCCCCCCCCCCCC(=O)*; αMeP = C[C@@]1(C(=O)O)CCCN1; Ac3c = NC1(C(=O)O)CC1; Mpa = O=C(O)CCS
parameter: IC50

[
  {
    "molecule": "C[C@@]12CCCN1C(=O)[C@H](Cc1ccc(O)cc1)NC(=O)[C@H](Cc1c[nH]cn1)NC(=O)[C@H](CC(=O)O)NC(=O)[C@H](Cc1c[nH]c3ccc(F)cc13)NC(=O)[C@H](Cc1c[nH]c3ccc(F)cc13)NC(=O)CNC(=O)C1(CC1)NC(=O)CCSCc1cccc(c1)CSC[C@@H](C(N)=O)NC2=O [Compound 281] ([Mpa][Ac3c]G[Trp(5-F)][Trp(5-F)]DHY[αMeP]C-NH2; linker 1-10 via mXylylene)",
    "system": "human PCSK9 / human LDLR EGFa domain interaction (Homo sapiens (Human))",
    "IC50": "0.0001 to 0.1 µM"
  }
]

Form field IC50 for item CCCCCCCCCCCCCCCC(=O)N[C@@H](CCC(=O)N[C@@H](CCC(=O)NCCCC[C@@H]1NC(=O)CCSCc2cccc(c2)CSC[C@@H](C(N)=O)NC(=O)[C@]2(C)CCCN2C(=O)[C@H](Cc2ccc(O)cc2)NC(=O)[C@H](Cc2c[nH]cn2)NC(=O)[C@H](CC(=O)O)NC(=O)[C@H](Cc2c[nH]c3ccc(F)cc23)NC(=O)[C@H](Cc2c[nH]c3ccc(F)cc23)NC(=O)CNC1=O)C(=O)O)C(=O)O [Compound 283] ([Mpa]K([γGlu-γGlu-Palmitoyl])G[Trp(5-F)][Trp(5-F)]DHY[αMeP]C-NH2; linker 1-10 via mXylylene) on human PCSK9 / human LDLR EGFa domain interaction (Homo sapiens (Human)): 21 to 50 µM

* * *

Recorded IC50, one value per entry.
# system: PCSK9 (Homo sapiens (Human))
# Sequence (Q8NBP7 153-692): as the sequence (Q8NBP7 153-692) above
# assay_procedure: PCSK9 Alexa FRET Plus assay (displacement of AlexaFluor647 tagged cyclic peptide Reagent B)
# Type: binding
# measurement_conditions: Alexa FRET Plus, 0.5 nM PCSK9, 960 nM AF cyclic peptide Reagent B; read-out: IC50
Starred links: 1 amine or outer side, 2 acyl side, 3 side chain; linkers in the order of their positions; H or OH if unused. Positions of bridges follow the written chain, without caps; N, C: chain ends. Non-standard residues stand in square brackets, D forms with d. Residues, ends and D or L forms follow the SMILES beside them. *: point of attachment. X1 = O=C1CC[C@@H](C(=O)[*:1])N1CCCSCc1cccc(C[*:2])c1; Trp(5-F) = N[C@@H](Cc1c[nH]c2ccc(F)cc12)C(=O)O; Pro(cis-4-F) = O=C(O)[C@@H]1C[C@H](F)CN1; X4 = O=C(CCSCc1cccc(CSCCN[*:1])c1)[*:2]; AEF = NCCOc1ccc(C[C@H](N)C(=O)O)cc1; aThr = C[C@H](O)[C@H](N)C(=O)O; αMeP = C[C@@]1(C(=O)O)CCCN1; X2 = O=C(C[*:2])[*:1]; X37 = O=C(CC1CC1)*

[
  {
    "compound": "CCCCCCCCCCCCCCCC(=O)N[C@@H](CCC(=O)NCCOCCOCC(=O)NCCOCCOCC(=O)NCCCC[C@H](NC(C)=O)C(=O)NCCOCCOCCOCCOCCOCCOCCOCCOCCOCCOCCOCCOCCC(=O)N[C@@H]1CSCc2cccc(c2)CSC[C@@H](C(N)=O)NC(=O)[C@]2(C)CCCN2C(=O)[C@H](Cc2ccc(O)cc2)NC(=O)[C@H]([C@@H](C)O)NC(=O)N2C[C@@H](F)C[C@H]2C(=O)[C@H](Cc2c[nH]c3ccc(F)cc23)NC(=O)[C@H](Cc2c[nH]c3ccc(F)cc23)NC(=O)[C@@H](C)NC(=O)[C@H](C)NC1=O)C(=O)O",
    "IC50": "0.1 to 100 nM"
  },
  {
    "compound": "C[C@@]12CCCN1C(=O)[C@H](Cc1ccc(O)cc1)NC(=O)[C@H](Cc1c[nH]cn1)NC(=O)[C@H](CC(=O)O)NC(=O)[C@H](Cc1c[nH]c3ccc(F)cc13)NC(=O)[C@H](Cc1c[nH]c3ccc(F)cc13)NC(=O)CNC(=O)[C@@H]1CCC(=O)N1CCCSCc1cccc(c1)CSC[C@@H](C(N)=O)NC2=O [Compound 482] (G[Trp(5-F)][Trp(5-F)]DHY[αMeP]C-NH2; linker N-8 via X1)",
    "IC50": "100 to 500 nM"
  }
]

The recorded IC50 for entry CC(=O)N[C@H]1CCCCNC(=O)COc2ccc(cc2)C[C@@H](C(N)=O)NC(=O)[C@]2(C)CCCN2C(=O)[C@H](Cc2ccc(O)cc2)NC(=O)[C@H](Cc2cnc[nH]2)NC(=O)[C@H](CC(=O)O)NC(=O)[C@H](Cc2c[nH]c3ccc(F)cc23)NC(=O)[C@H](Cc2c[nH]c3ccc(F)cc23)NC(=O)CNC1=O [Compound 365] (Ac-KG[Trp(5-F)][Trp(5-F)]DHY[αMeP]Y-NH2; linker 1-9 via X2) equals 0.1 to 100 nM

# IC50 (compound: COc1ccc(C[C@@H]2NC(=O)[C@H]([C@H](C)O)NC(=O)[C@H]3CCCN3C(=O)[C@H](Cc3c[nH]c4ccc(F)cc34)NC(=O)[C@H](Cc3c[nH]c4ccc(F)cc34)NC(=O)[C@@H](C)NC(=O)[C@H](CCCCN)NC(=O)CCSCc3cccc(c3)CSCCNC(=O)[C@]3(C)CCCN3C2=O)cc1 [Compound 103] (cyclo(K[dA][Trp(5-F)][Trp(5-F)][dP][aThr]Y(Me)[αMeP][X4])) ) is 500 to 5000 nM

Sample COc1ccc(C[C@@H]2NC(=O)[C@H]([C@@H](C)O)NC(=O)[C@@H]3C[C@H](F)CN3C(=O)[C@H](Cc3c[nH]c4ccc(F)cc34)NC(=O)[C@H](Cc3c[nH]c4ccc(F)cc34)NC(=O)[C@@H](C)NC(=O)[C@H](CCCCN)NC(=O)[C@@H](NC(=O)CC3CC3)CC(=O)NCCOc3ccc(cc3)C[C@@H](C(N)=O)NC(=O)[C@]3(C)CCCN3C2=O)cc1 [Compound 108] (X37-DK[dA][Trp(5-F)][Trp(5-F)][Pro(cis-4-F)]TY(Me)[αMeP][AEF]-NH2; lactam 1-10) ; IC50 observed: 500 to 5000 nM

* * *

# system: UniProt Q8NBP7
# assay_procedure: PCSK9 Alexa FRET Standard assay (displacement of AlexaFluor647 tagged cyclic peptide Reagent A)
# Format: binding
# measurement_conditions: PCSK9 Alexa FRET Standard assay, 0.5 nM PCSK9, 20 nM AF cyclic peptide Reagent A; read-out: IC50
Starred links: 1 amine or outer side, 2 acyl side, 3 side chain; linkers in the order of their positions; H or OH if unused. Positions of bridges follow the written chain, without caps; N, C: chain ends. Non-standard residues stand in square brackets, D forms with d. Residues, ends and D or L forms follow the SMILES beside them. Trp(5-F) = N[C@@H](Cc1c[nH]c2ccc(F)cc12)C(=O)O; Pyridine(3,5-bisCH2) = c1ncc(C[*:2])cc1C[*:1]; Tyr(3-Cl) = N[C@@H](Cc1ccc(O)c(Cl)c1)C(=O)O; X4 = O=C(CCSCc1cccc(CSCCN[*:1])c1)[*:2]; αMeP = C[C@@]1(C(=O)O)CCCN1; Mpa = O=C(O)CCS
IC50 by entry:

[
  {
    "compound": "C[C@H]1NC(=O)[C@H](CCCCN)NC(=O)CCSCc2cccc(c2)CSCCNC(=O)[C@]2(C)CCCN2C(=O)[C@H](Cc2ccc(O)c(Cl)c2)NC(=O)[C@H](Cc2cnc[nH]2)NC(=O)[C@H](CC(=O)O)NC(=O)[C@H](Cc2c[nH]c3ccc(F)cc23)NC(=O)[C@H](Cc2c[nH]c3ccc(F)cc23)NC1=O [Compound 246] (cyclo(DH[Tyr(3-Cl)][αMeP][X4]K[dA][Trp(5-F)][Trp(5-F)]))",
    "system": "UniProt Q8NBP7",
    "IC50": "1000 to 12100 nM"
  }
]

# input for lookup
Input COc1ccc(C[C@@H]2NC(=O)[C@H]([C@@H](C)O)NC(=O)[C@@H]3CCCN3C(=O)[C@H](Cc3c[nH]c4ccc(F)cc34)NC(=O)[C@H](Cc3c[nH]c4ccc(F)cc34)NC(=O)[C@@H](C)NC(=O)[C@H](CCCCN)NC(=O)CCSCc3cncc(c3)CSC[C@@H](C(N)=O)NC(=O)[C@]3(C)CCCN3C2=O)cc1 [Compound 058] ([Mpa]K[dA][Trp(5-F)][Trp(5-F)]PTY(Me)[αMeP]C-NH2; linker 1-10 via Pyridine(3,5-bisCH2)) . Output IC50: 0.11 to 100 nM
